- experimental_target: SMARCA2 (Homo sapiens, UniProt P51531)
- Sequence (P51531 whole entry): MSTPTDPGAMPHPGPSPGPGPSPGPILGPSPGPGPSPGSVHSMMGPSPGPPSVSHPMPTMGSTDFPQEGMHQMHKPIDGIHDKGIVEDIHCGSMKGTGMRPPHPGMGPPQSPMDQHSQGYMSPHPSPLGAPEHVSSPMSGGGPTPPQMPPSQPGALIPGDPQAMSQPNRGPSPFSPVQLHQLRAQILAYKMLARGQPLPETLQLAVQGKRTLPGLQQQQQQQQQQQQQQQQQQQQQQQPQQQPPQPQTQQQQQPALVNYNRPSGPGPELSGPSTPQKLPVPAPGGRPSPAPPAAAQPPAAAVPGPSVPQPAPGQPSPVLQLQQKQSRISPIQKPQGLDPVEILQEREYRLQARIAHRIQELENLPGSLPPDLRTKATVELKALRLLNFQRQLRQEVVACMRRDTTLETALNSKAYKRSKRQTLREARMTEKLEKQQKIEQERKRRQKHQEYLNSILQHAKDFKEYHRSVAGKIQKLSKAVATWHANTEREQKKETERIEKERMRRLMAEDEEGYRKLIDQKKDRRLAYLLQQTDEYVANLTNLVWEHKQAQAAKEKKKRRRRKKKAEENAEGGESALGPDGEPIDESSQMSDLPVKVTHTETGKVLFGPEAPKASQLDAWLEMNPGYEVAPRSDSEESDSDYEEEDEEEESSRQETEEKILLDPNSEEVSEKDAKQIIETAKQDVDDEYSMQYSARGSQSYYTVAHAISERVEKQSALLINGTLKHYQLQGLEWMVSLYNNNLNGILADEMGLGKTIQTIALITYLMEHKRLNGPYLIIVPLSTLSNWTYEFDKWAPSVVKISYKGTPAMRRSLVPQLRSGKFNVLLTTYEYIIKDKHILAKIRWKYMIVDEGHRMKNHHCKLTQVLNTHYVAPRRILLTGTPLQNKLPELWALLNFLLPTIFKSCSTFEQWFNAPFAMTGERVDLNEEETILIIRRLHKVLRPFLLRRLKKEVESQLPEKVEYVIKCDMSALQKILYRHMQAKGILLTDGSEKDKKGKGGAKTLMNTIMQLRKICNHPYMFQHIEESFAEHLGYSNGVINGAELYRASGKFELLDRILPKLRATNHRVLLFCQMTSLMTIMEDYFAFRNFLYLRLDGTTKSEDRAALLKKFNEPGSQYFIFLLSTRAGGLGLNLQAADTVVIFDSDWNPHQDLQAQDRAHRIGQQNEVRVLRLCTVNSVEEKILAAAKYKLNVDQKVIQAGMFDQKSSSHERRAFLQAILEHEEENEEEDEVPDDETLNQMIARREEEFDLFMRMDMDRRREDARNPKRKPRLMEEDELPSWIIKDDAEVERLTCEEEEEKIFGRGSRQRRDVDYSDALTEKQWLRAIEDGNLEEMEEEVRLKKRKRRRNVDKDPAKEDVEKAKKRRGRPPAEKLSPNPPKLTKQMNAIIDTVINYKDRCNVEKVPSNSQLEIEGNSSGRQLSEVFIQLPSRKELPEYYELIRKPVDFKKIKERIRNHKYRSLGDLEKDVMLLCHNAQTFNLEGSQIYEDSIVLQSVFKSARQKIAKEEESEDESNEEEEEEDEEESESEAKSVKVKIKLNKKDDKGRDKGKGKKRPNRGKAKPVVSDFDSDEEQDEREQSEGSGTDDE
- assay_comment: MSD SMARCA2 degradation in A549 cell line
- Type: cell-based
- condition_summary: A549, A549 cells, 24 h
Can you tell me Dmax for the items I'm about to list?

Task item: Record request: Dmax value, item C#Cc1ccc(CNC(=O)[C@@H]2C[C@@H](O)CN2C(=O)[C@@H](NC(=O)N2CC3(CC(N4CCC([C@H]5CC[C@@H](N6CCc7[nH]c8nnc(-c9ccccc9O)cc8c7[C@H]6C)CC5)CC4)C3)C2)C(C)(C)C)cc1 [I-185]
Reply: > 90%

Task item: Item C#Cc1ccc(CNC(=O)[C@@H]2C[C@@H](O)CN2C(=O)[C@@H](NC(=O)C2CCN(C[C@H]3CC[C@@H](N4CCc5[nH]c6nnc(-c7ccccc7O)cc6c5[C@H]4C)CC3)CC2)C(C)(C)C)cc1 (single isomer, unassigned) [I-201] has what recorded Dmax?
Reply: > 90%

Task item: Endpoint output: Dmax of Cc1ncsc1-c1ccc(CNC(=O)[C@@H]2C[C@@H](O)CN2C(=O)[C@@H](NC(=O)[C@H]2CCC3(CC2)C[C@H](N2CCC(c4ccc(N5CCN6c7cc(-c8ccccc8O)nnc7NC[C@H]6C5)nc4)CC2)C3)C(C)(C)C)cc1 (stereo partly drawn) [I-148] . Value?
Reply: > 90%

Task item: I'd like to know its Dmax. The compound in question is C#Cc1ccc(CNC(=O)[C@@H]2C[C@@H](O)CN2C(=O)[C@@H](NC(=O)N2CC3(CC(N4CCC(c5cnc(N6CCN7c8cc(-c9ccccc9O)nnc8NC[C@H]7C6)nc5)CC4)C3)C2)C(C)(C)C)cc1 [I-111]
Reply: > 90%

Task item: What value of Dmax has been recorded for this entry: C#Cc1ccc(CNC(=O)[C@@H]2C[C@@H](O)CN2C(=O)[C@@H](NC(=O)N2CCC(CN3CCC(N4CCc5[nH]c6nnc(-c7ccccc7O)cc6c5[C@H]4C)CC3)CC2)C(C)(C)C)cc1 [I-198]
Reply: 70 to 90%

Task item: Data request, read-out Dmax, for C#Cc1ccc(CNC(=O)[C@@H]2C[C@@H](O)CN2C(=O)[C@@H](NC(=O)N2CCN(CC3CCN([C@H]4CC[C@@H](N5CCc6[nH]c7nnc(-c8ccccc8O)cc7c6[C@H]5C)CC4)CC3)CC2)C(C)(C)C)cc1 [I-203]
Reply: 70 to 90%

Task item: Please give the measured Dmax for this compound: C#Cc1ccc(CNC(=O)[C@@H]2C[C@@H](O)CN2C(=O)[C@@H](NC(=O)N2CC3(CC(N4CCC(N5CCC(N6CCc7[nH]c8nnc(-c9ccccc9O)cc8c7[C@H]6C)CC5)CC4)C3)C2)C(C)(C)C)c(F)c1 [I-181]
Reply: > 90%

Task item: Entry Cc1ncsc1-c1ccc(CNC(=O)[C@@H]2C[C@@H](O)CN2C(=O)[C@@H](NC(=O)C2(F)CC2)C(C)(C)C)c(O[C@H]2CC[C@@H](N3CCC(c4cnc(N5CCc6[nH]c7nnc(-c8ccccc8O)cc7c6[C@H]5C)nc4)CC3)CC2)c1 (single isomer, unassigned) [I-31] : reported Dmax = ?
Reply: > 90%

Task item: Quick one: Dmax of C#Cc1ccc(CNC(=O)[C@@H]2C[C@@H](O)CN2C(=O)[C@@H](NC(=O)N2CC3(CC(N4CCC(c5cnc(N6CCc7[nH]c8nnc(-c9ccccc9O)cc8c7[C@H]6C)nc5)CC4)C3)C2)C(C)(C)CCO)cc1 [I-288] ?
Reply: > 90%

Hello, the source for this data is patent US20250170248A1, in case you need it.
